Please provide measured Papp A→B at 3 h, 10 µM for the entries that follow.
experiment: in vitro; conditions: dog, MDCK
Description: Apparent permeability across apical to basolateral side in MDCK cells at 10 uM incubated upto 180 mins by LC/MS-MS analysis
Answers are plain numbers, in ×10⁻⁶ cm/s.

# count of solved cases: 8
>>> print(df.to_string())
                              smiles_string  data_value
0  Cc1cc(Nc2nccc3nc(-c4c(Cl)cc(C#N)cc4Cl)[nH]c23)ncn1          16
1  O=C(Nc1c[nH]nc1-c1cc2ccccc2cc1OC(F)F)c1cnn2cccnc12          13
2  O=C(Nc1c[nH]nc1-c1cc(Cl)ccc1OC(F)F)c1cnn2cccnc12          14
3  CC[C@@H]1CN(C(=O)NCC(F)(F)F)C[C@@H]1c1cnc2cnc3[nH]ccc3n12         3.6
4  Cn1cc(NC(=O)c2cnn3cccnc23)c(-c2cc(Cl)ccc2OC(F)F)n1          14
5  Nc1nn2cccnc2c1C(=O)Nc1c[nH]nc1-c1cc(Cl)ccc1OC(F)F          15
6  O=C(Nc1c[nH]nc1-c1cc(Cl)ccc1OC(F)F)c1cncc2c[nH]nc12         9.5
7  Cn1cc(NC(=O)c2cnn3cccnc23)c(-c2cc(Cl)ccc2Cl)n1          20

Each compound below has a reported value. Please supply its Papp A→B at 3 h, 10 µM.
1. CCn1c(C(=O)N(C2CC2)C2CC2)cc2c3c(ncn3C)c(Nc3cc(C)n(C)n3)nc21
2. O=C(Nc1c[nH]nc1-c1cc(I)ccc1OC(F)F)c1cnn2cccnc12

OUTPUT:
[16, 15]

Cited source: ChEMBL document CHEMBL4665643
